- system: Protein kinase C beta type (Homo sapiens) (UniProt P05771);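 also: PKC-beta1 splice variant of the enzyme, figure reported as mean inhibition, measured within the GSK PKIS kinase profiling panel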
- Sequence (P05771 2-671 limits assumed): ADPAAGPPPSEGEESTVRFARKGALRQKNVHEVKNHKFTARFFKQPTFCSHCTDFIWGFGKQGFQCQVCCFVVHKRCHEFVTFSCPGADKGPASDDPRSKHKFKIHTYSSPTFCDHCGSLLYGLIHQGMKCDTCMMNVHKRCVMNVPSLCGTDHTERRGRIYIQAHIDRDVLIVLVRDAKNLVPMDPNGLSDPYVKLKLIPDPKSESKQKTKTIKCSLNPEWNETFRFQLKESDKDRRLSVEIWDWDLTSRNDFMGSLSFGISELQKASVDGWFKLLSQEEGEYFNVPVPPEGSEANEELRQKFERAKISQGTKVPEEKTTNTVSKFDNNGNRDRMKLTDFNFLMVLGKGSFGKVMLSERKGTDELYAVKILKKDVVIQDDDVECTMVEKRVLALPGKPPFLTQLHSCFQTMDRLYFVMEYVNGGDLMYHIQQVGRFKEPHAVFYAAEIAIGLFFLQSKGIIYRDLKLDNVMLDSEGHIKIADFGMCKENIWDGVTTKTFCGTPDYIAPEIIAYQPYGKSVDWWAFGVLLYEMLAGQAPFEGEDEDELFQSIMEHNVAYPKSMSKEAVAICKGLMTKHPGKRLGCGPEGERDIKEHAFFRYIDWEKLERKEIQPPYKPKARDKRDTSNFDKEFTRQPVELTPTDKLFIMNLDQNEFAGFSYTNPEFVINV
- test context: at 0.1 µM
- Description: GSK_PKIS: PKC-beta1 (splice variant) mean inhibition at 0.1 uM [Nanosyn]
// inhibition lookup, one value per entry
Numeric only. Scale: %

CN(C)CCCNc1nccc(-c2c(-c3ccc(F)cc3)nn3cc(C(F)(F)F)ccc23)n1; 2.22
NS(=O)(=O)c1ccc(N/N=C2\C(=O)Nc3ccc(C(=O)NCCCn4ccnc4)cc32)cc1; 0.75
NCc1ccc(-n2c(-c3nonc3N)nc3cnccc32)cc1; 29.1
Fc1ccc(-c2ncn(C3CCNCC3)c2-c2ccnc(Oc3ccc(Oc4ccccc4)cc3)n2)cc1; 1.48
COc1ccc(-c2ccc3c(NC(=O)C4CC4)n[nH]c3n2)cc1; -0.58

Given item "Fc1ccc(-c2nc3n(c2-c2ccncc2)CCS3)cc1" , the value recorded as its inhibition is 0.64

Query "O=C1NC(=O)C(c2cccc(Cl)c2)=C1Nc1ccc(Cl)c(C(=O)O)c1" yields inhibition of 0.61

inhibition reported for this compound "c1ccc(Oc2ccc(Nc3ncc(-c4ccccc4)o3)cc2)cc1" : 1.14

So for "CCS(=O)(=O)c1ccc(OC)c(Nc2ncc(-c3cccc(-c4ccccc4F)c3)o2)c1" , the logged inhibition turned out to be 0.49

Form field inhibition, entry "CCc1cccc(CC)c1/C=C/c1cncc(C(=O)NC)c1" : 0.31

"CN(C)c1ccc2c(c1)/C(=C/Nc1ccc(S(N)(=O)=O)cc1)C(=O)N2" has a reported inhibition of 0.94

So for "NS(=O)(=O)c1ccc(Nc2cc(-c3ccc(O)c(F)c3)n[nH]2)cc1" , the logged inhibition turned out to be -0.01

For reference, reported inhibition for "COc1cc2ncn(-c3cc(OCCc4ccccc4)c(C(N)=O)s3)c2cc1OC" stands at 0.05

Lab note: "COc1cc(Nc2ncc(-c3ccccc3)o2)cc(OC)c1OC" gave inhibition of -1.34

# inhibition (compound: "COc1cc(Nc2ncc3c(C)nc(-c4cccc(Oc5ccccc5)c4)n3n2)cc(OC)c1OC" ) is -0.46

Data origin: ChEMBL document CHEMBL1961873
